Below is a list of entries, each paired with its recorded Genotoxicity test, With S9 rat liver extract, Bscl 2, 50 value.
System: Bscl2-GFP
method description: ToxTracker genotoxicity assay, Bscl2-GFP reporter induction
assay conditions: GFP induction vs vehicle at 50% cytotoxicity; 3 h exposure with S9, 24 h recovery
The reply should be a number in fold, with the unit left off.

Use the examples below as a reference point.
Record summary for COCCOCCOCCOCCOCCOCCOCCOCCOCCOCCOCCOCCOCCOCC(CN1CC1C)OC(=O)NCCCCCCn1c(=O)n(CCCCCCNC(=O)OC(COCCOCCOCCOCCOCCOCCOCCOCCOCCOCCOCCOCCOCCOC)CN2CC2C)c(=O)n(CCCCCCNC(=O)OC(COCCOCCOCCOCCOCCOCCOCCOCCOCCOCCOCCOCCOCCOC)CN2CC2C)c1=O (centres unmarked) : reported Genotoxicity test, With S9 rat liver extract, Bscl 2, 50 = 1.1

Record summary for CCCCCCCCCC(=O)OCC(CN1CC1C)OC(=O)NCCCCCCn1c(=O)n(CCCCCCNC(=O)OC(COC(=O)CCCCCCCCC)CN2CC2C)c(=O)n(CCCCCCNC(=O)OC(COC(=O)CCCCCCCCC)CN2CC2C)c1=O (centres unmarked) : reported Genotoxicity test, With S9 rat liver extract, Bscl 2, 50 = 1.1

Record summary for CCCCCCCCCC(=O)OCC(CN1CC1C)OC(=O)NC(C)(C)c1cccc(C(C)(C)NC(=O)OC(COC(=O)CCCCCCCCC)CN2CC2C)c1 (centres unmarked) : reported Genotoxicity test, With S9 rat liver extract, Bscl 2, 50 = 1.2

Record summary for Cc1ccccc1OCC(CN1CC1C)OC(=O)NCCCCCCn1c(=O)n(CCCCCCNC(=O)OC(COc2ccccc2C)CN2CC2C)c(=O)n(CCCCCCNC(=O)OC(COc2ccccc2C)CN2CC2C)c1=O (centres unmarked) : reported Genotoxicity test, With S9 rat liver extract, Bscl 2, 50 = 1.4

Record summary for CCC(CN1CC1C)OC(=O)NCCCCCCn1c(=O)n(CCCCCCNC(=O)OC(CC)CN2CC2C)c(=O)n(CCCCCCNC(=O)OC(CC)CN2CC2C)c1=O (centres unmarked) : reported Genotoxicity test, With S9 rat liver extract, Bscl 2, 50 = 1.5

Record summary for CC(CN1CC1C)OC(=O)NC(C)(C)c1cccc(C(C)(C)NC(=O)OC(C)CN2CC2C)c1 (centres unmarked) [Comp. Ex. 8, reference compound] : reported Genotoxicity test, With S9 rat liver extract, Bscl 2, 50 = 2.1

Record summary for CCCCC(CC)COCC(CN1CC1C)OC(=O)NCCCCCCn1c(=O)n(CCCCCCNC(=O)OC(COCC(CC)CCCC)CN2CC2C)c(=O)n(CCCCCCNC(=O)OC(COCC(CC)CCCC)CN2CC2C)c1=O (centres unmarked) : reported Genotoxicity test, With S9 rat liver extract, Bscl 2, 50 = 0.7

Record summary for C=CCOCC(CN1CC1C)OC(=O)NCCCCCCn1c(=O)n(CCCCCCNC(=O)OC(COCC=C)CN2CC2C)c(=O)n(CCCCCCNC(=O)OC(COCC=C)CN2CC2C)c1=O (centres unmarked) : reported Genotoxicity test, With S9 rat liver extract, Bscl 2, 50 = 1.2

***
Record summary for CC(CN1CC1C)OC(=O)NC1CCC(CC2CCC(NC(=O)OC(C)CN3CC3C)CC2)CC1 (centres unmarked) [Comp. Ex. 9, reference compound] : reported Genotoxicity test, With S9 rat liver extract, Bscl 2, 50 = 2.0

Record summary for CCCCOCC(CN1CC1C)OC(=O)Nc1ccc(C)c(NC(=O)OC(COCCCC)CN2CC2C)c1 (centres unmarked) [Comp. Ex. 11, reference compound] : reported Genotoxicity test, With S9 rat liver extract, Bscl 2, 50 = 1.6
